molecular target: human histamine H4 receptor (Homo sapiens, UniProt Q9H3N8); construct: expressed in transfected cells; host or cells: SK-N-MC cells or COS7 cells, transiently transfected; cell membranes used; assay: Binding Assay on Recombinant Human Histamine H4 Receptor; details: competition binding with 3H-histamine (5 nM), membranes of SK-N-MC or COS7 cells expressing human H4 receptor; Cheng-Prusoff, KD 5 nM; average of results obtained; read-out: Ki
Counter-ions that a name gives are not always drawn.
measure.name: Ki (nM)

Solved cases below.
molecule	units.label	Ki
Nc1nc(N2CCNCC2)c2oc3ccc(Cl)c(Cl)c3c2n1 [Example 104, trifluoroacetic acid salt]	nM	61
Nc1nc(N2CC[C@@H]3CNC[C@@H]32)c2oc3ccc(Cl)cc3c2n1 (relative stereo) [Example 95, trifluoroacetic acid salt]	nM	140

[a] CN1CCN(c2nc(N)nc3c2oc2cccc(Cl)c23)CC1 [Example 151, trifluoroacetic acid salt]
[b] Nc1nc(N2CC3C(N)C3C2)c2oc3ccc(Cl)cc3c2n1 (stereo not shown) [Example 78, trifluoroacetic acid salt]
Prompt line: Looking at a and b , which one comes out lower in Ki terms? Which one? Tell me its label.
Response line: b

---

target: human histamine H4 receptor (Homo sapiens); construct: expressed in transfected cells; host or cells: SK-N-MC cells or COS7 cells, transiently transfected; cell membranes used; test: Binding Assay on Recombinant Human Histamine H4 Receptor; settings: competition binding with 3H-histamine (5 nM), membranes of SK-N-MC or COS7 cells expressing human H4 receptor; Cheng-Prusoff, KD 5 nM; average of results obtained; read-out: Ki
pKi: −log10 of the molar value. Structures can show the parent of a compound that is named as a salt.
measure.name: pKi

Worked cases, pKi given:
compound	target.or.system	pKi
CN[C@@H]1CCN(c2nc(N)nc3c2oc2ccc(F)c(F)c23)C1 [Example 148, trifluoroacetic acid salt]	human histamine H4 receptor (Homo sapiens)	7.41
CN[C@@H]1CCN(c2nc(N)nc3c2oc2ccc(C(F)(F)F)cc23)C1 [Example 140, trifluoroacetic acid salt]	human histamine H4 receptor (Homo sapiens)	9.00
Nc1nc(N2CCC[C@H](N)C2)c2oc3ccc(C(F)(F)F)cc3c2n1 [Example 141, trifluoroacetic acid salt]	human histamine H4 receptor (Homo sapiens)	7.37
C[C@@H]1CN(c2nc(N)nc3c2oc2ccc(Cl)cc23)[C@@H](C)CN1 [Example 130, trifluoroacetic acid salt]	human histamine H4 receptor (Homo sapiens)	6.85
Nc1nc(N2CCNCC2)c2oc3cccc(F)c3c2n1 [Example 137, trifluoroacetic acid salt]	human histamine H4 receptor (Homo sapiens)	6.82

[A] CN[C@H]1CCCN(c2nc(N)nc3c2oc2ccc(Cl)cc23)C1 [Example 74, citrate salt]
[B] Nc1nc(N2CCC[C@H](N)C2)c2oc3ccc(Cl)cc3c2n1 [Example 13, trifluoroacetic acid salt]
Prompt line: Which value of pKi is smaller, the one for A or the one for B ? Give the label under which the chosen entry appears.
Response line: A

---

biological target: human histamine H4 receptor (Homo sapiens); construct: expressed in transfected cells; host or cells: SK-N-MC cells or COS7 cells, transiently transfected; cell membranes used; test: Binding Assay on Recombinant Human Histamine H4 Receptor; details: competition binding with 3H-histamine (5 nM), membranes of SK-N-MC or COS7 cells expressing human H4 receptor; Cheng-Prusoff, KD 5 nM; average of results obtained; read-out: Ki
Counter-ions that a name gives are not always drawn.
measure.name: Ki (nM)

molecule	target.or.system	Ki, nM
C[C@H]1CNCCN1c1nc(N)nc2c1oc1ccc(Cl)cc12 [Example 131, trifluoroacetic acid salt]	human histamine H4 receptor (Homo sapiens)	60
CN[C@H]1CCN(c2nc(N)nc3c2oc2ccc(Cl)cc23)C1	human histamine H4 receptor (Homo sapiens)	2.1
Nc1nc(N2CCNCC2)c2oc3ccc(C(F)(F)F)cc3c2n1 [Example 142, trifluoroacetic acid salt]	human histamine H4 receptor (Homo sapiens)	13
CN[C@@H]1CCN(c2nc(N)nc3c2oc2ccc(OC)cc23)C1 [Example 102, trifluoroacetic acid salt]	human histamine H4 receptor (Homo sapiens)	12
OCCNc1nc(N2C[C@H]3CCCN[C@H]3C2)c2oc3ccc(Cl)cc3c2n1 (relative stereo)	human histamine H4 receptor (Homo sapiens)	930
CN1CCN(c2nc(N)nc3c2sc2ccc(F)cc23)CC1 [Example 70, trifluoroacetic acid salt]	human histamine H4 receptor (Homo sapiens)	18.9
CN1CCN(c2nc(N)nc3c2sc2ccccc23)CC1	human histamine H4 receptor (Homo sapiens)	29
COc1ccc2oc3c(N4CCN(C)CC4)nc(N)nc3c2c1 [Example 89, trifluoroacetic acid salt]	human histamine H4 receptor (Homo sapiens)	12

[P] CN(C)[C@@H]1CCN(c2nc(N)nc3c2oc2ccccc23)C1 [Example 22, trifluoroacetic acid salt]
[Q] Nc1nc(N2CCCNCC2)c2oc3ccc(Cl)cc3c2n1 [Example 7, trifluoroacetic acid salt]
Prompt line: Name the one with the greater Ki value, either P or Q as given. Your answer should be the label attached to the chosen record.
Response line: P
(P: 12 nM, Q: 1.1 nM)

[1] Nc1nc(N2CCN3CCCCC3C2)c2oc3ccc(Cl)cc3c2n1 (centres unmarked)
[2] CN1CCCN(c2nc(NCCO)nc3c2oc2ccc(Cl)cc23)CC1
Prompt line: Of 1 and 2 , which carries the smaller reported Ki figure? Write down the label attached to your selection.
Response line: 1
(1: 16 nM, 2: 260 nM)

[1] CN[C@@H]1CCN(c2nc(N)nc3c2sc2cc(Cl)ccc23)C1 [Example 60, trifluoroacetic acid salt]
[2] CN1CCN(c2nc(N)nc3c2sc2ccc(Br)cc23)CC1 [Example 50, hydrochloride salt]
[3] Nc1nc(NC2CNC2)c2oc3ccc(Cl)cc3c2n1 [Example 111, trifluoroacetic acid salt]
Prompt line: List from greatest to least Ki. As an answer, provide the labels arranged in the order called for.
Response line: 3, 1, 2
(3: 330 nM, 1: 5.2 nM, 2: 1 nM)

Provenance of the data: patent US8030321B2
